Where do these numbers come from? They come from paper PMC4072508.

# TGT: Bcl-2, P10415
# Sequence (P10415 1-217): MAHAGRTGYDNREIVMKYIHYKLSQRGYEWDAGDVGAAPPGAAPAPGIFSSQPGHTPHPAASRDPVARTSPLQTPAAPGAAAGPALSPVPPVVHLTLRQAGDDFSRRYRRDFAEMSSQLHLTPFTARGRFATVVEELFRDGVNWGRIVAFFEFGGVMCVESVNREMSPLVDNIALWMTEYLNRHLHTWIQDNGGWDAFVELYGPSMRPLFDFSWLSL
# ASSAY INFO: peptide SPOT array, c-Myc-tagged receptor at 1 uM or 100 nM, anti-c-Myc-Cy3
Doc: threshold 0.04 (exclusive). Items with SPOT signal as a fraction of Bim BH3's signal on the same receptor and array beneath it return Y; others return N.

Worked set:
BINDER	GROUP LABEL
LNELYQRAKKLSKAGDNIPEEQPVAS [TMX2]	Y
ELLRLRQHWKLRKVGDKILGDLSYRS [MED17]	N
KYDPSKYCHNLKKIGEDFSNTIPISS [NOL8]	Y

Record RIEERKAIIGLYNYAHEMTHGASDRE [NCKAP1] : is its SPOT signal as a fraction of Bim BH3's signal on the same receptor and array strictly below 0.04? Y

Record KSRLVQQSKALKELADELQERCQRPA [TRIM58] : is its SPOT signal as a fraction of Bim BH3's signal on the same receptor and array strictly below 0.04? N

Record AEHEDDLPENLSEIADLWNSPTRTHG [CDH23] : is its SPOT signal as a fraction of Bim BH3's signal on the same receptor and array strictly below 0.04? Y

Record KRALIQCAKDIAKASDEVTRLAKEVA [VCL] : is its SPOT signal as a fraction of Bim BH3's signal on the same receptor and array strictly below 0.04? Y

Record FEKLRMIAKEIRHVGRMASVNMDPAL [RAPGEF2] : is its SPOT signal as a fraction of Bim BH3's signal on the same receptor and array strictly below 0.04? N

Record EGMRTILVDWLVEVGEEYKLRAETLY [CCNA1] : is its SPOT signal as a fraction of Bim BH3's signal on the same receptor and array strictly below 0.04? Y

Record SGEFARICRDLSHIGDAVVISCAKDG [PCNA] : is its SPOT signal as a fraction of Bim BH3's signal on the same receptor and array strictly below 0.04? Y

Record RAGELDRARELMRIGKRFGAVLEALE [CC2D1B] : is its SPOT signal as a fraction of Bim BH3's signal on the same receptor and array strictly below 0.04? Y

Record LCKEKPTTALLDKVADNLAIQLAAVT [ILF3] : is its SPOT signal as a fraction of Bim BH3's signal on the same receptor and array strictly below 0.04? Y

Record DQEEACASRQLHSLASFSTVTARRNP [INCA1] : is its SPOT signal as a fraction of Bim BH3's signal on the same receptor and array strictly below 0.04? N
